Test system: OVCAR-3 ovarian
Experiment: NCI-60 one-dose screen, 48 h (100 = growth as untreated, 0 = no growth, -100 = all killed)
Conditions: 10 µM unless noted
About 83,000 compounds went through this panel and 20% of them were active in at least one assay; those are over-represented in the sample as a whole.
Measured Metric: growth (%)
The reply should contain only the number, in %.

| Smiles Structure | Unit Symbol | growth |
| --- | --- | --- |
| CC(C)(C)c1cc(C=Nc2cccc(C(F)(F)F)c2)c(O)c(C(C)(C)C)c1 | % | 95 |
| Cc1[nH]c(C(=O)Nc2ccc(C(N)=O)cc2NC(C)C)c(Cl)c1Cl | % | 96.3 |
| COc1cc(-c2nc3ccc(C)cc3[nH]2)ccc1OCC(=O)N=Nc1c(O)[nH]c2ccc(Cl)cc12 | % | -70.2 |
| COCCCOc1cc(C[C@@H](C[C@H](N)[C@@H](O)C[C@H](C(=O)NCC(C)(C)C(N)=O)C(C)C)C(C)C)ccc1OC | % | 116 |
| CCOC(=O)c1c2c(n3c1NCC3)-c1ccccc1C2=O | % | 92.1 |

Entry CCN(CC)c1ccc(N2C(=O)/C(=C/c3cccs3)SC2=S)cc1 has what growth? 101

Any idea what its growth is? The compound is CCOC(=O)C(=Cc1cccc(C#N)c1)C(=O)OCC 61.2

* * *

Tested on: HT29 colon
Test: NCI-60 one-dose screen, 48 h (100 = growth as untreated, 0 = no growth, -100 = all killed)
Conditions: 10 µM unless noted
Compounds without any hit were thinned out: in the full panel of roughly 83,000, 20% have a hit.
growth less than 70% is TRUE; growth greater than or equal to 70% is FALSE.

| Compound | Cat |
| --- | --- |
| O=C(CBr)CN1C(=O)c2ccccc2C1=O | FALSE |
| COc1ccc(C(c2cc(OC)c(OC)c(OC)c2)N2CCN(Cc3ccccc3)CC2)cc1 (stereo not drawn) | TRUE |
| CCNc1nc(-c2ccc(F)cc2)c(C#N)c(=O)n1C | TRUE |
| CN1CCCc2cc(/C=C3/SC(=S)N(CCc4ccc(O)cc4)C3=O)ccc21 | FALSE |
| N=C(N)SCc1cccc2c(CSC(=N)N)cccc12 | FALSE |
| O=C(Cn1nnc([N+](=O)[O-])n1)c1ccccc1 | TRUE |
| COC(=O)c1c2c(n3ccc(C)cc13)C(=O)c1ccccc1C2=O | TRUE |

Please indicate whether the reported growth of COc1ccc(-c2cc(-c3cc(OC)c(OC)c(OC)c3)c(C#N)c(=O)n2CCCCCC(=O)NO)cc1 is strictly below 70%. FALSE

* * *

Tested on: DU-145 prostate
Assay: NCI-60 one-dose screen, 48 h (100 = growth as untreated, 0 = no growth, -100 = all killed)
Settings: 10 µM unless noted
This is part of a sample that, as a whole, favours compounds with a hit. Of some 83,000 tested, about 20% had one in any assay.
Measured Metric: growth (%)
Give a bare numeral; the unit % is implied.

| Compound | growth / % |
| --- | --- |
| C=CC1(C)C(O[Si](C)(C)C(C)(C)C)CC2C3OC(=O)NC31c1cccc3c1[C@H](C(=O)N3C)C2(C)C (stereo partly specified) | 76.2 |
| Cc1c(Cl)cccc1C(=O)Nc1nc2c(s1)CN(C(=O)Nc1cccc(C(F)(F)F)c1)CC2 | 16.8 |
| O=C(O)CCCc1cnc2c3sccc3nc(SCc3c(Cl)cccc3Cl)n12 | 59.3 |
| O=C(Cn1cc(CN2C(=O)c3ccccc3S2(=O)=O)nn1)Nc1cccc(Cl)c1 | 109 |
| N#Cc1c(-c2cccc([N+](=O)[O-])c2)cc(-c2ccc(Nc3nc(Nc4ccc(F)cc4)nc(Nc4ccc(F)cc4)n3)cc2)nc1N | 154 |
| CS(=O)(=O)Nc1cc(-c2ccc3ncnc(Nc4ccc5c(cnn5Cc5cccnc5)c4)c3c2)cnc1Cl | 63.4 |

Consider the compound shown here: COc1cc(C2Cc3ncccc3-c3[nH]c(=O)c4cccnc4c32)cc(OC)c1OC (stereo unspecified) What is its recorded growth? 23

Would you kindly share the measured growth for Clc1ccc(-c2cn3ccsc3n2)c(Cl)c1Cl ? 76.2

Request the reported growth associated with O=C(CN1CCN(c2cc3c(cc2F)c(=O)c(C(=O)O)cn3C2CC2)CC1)N/N=C/c1ccncc1 106

Source: PubChem BioAssay (NCI)
